IC50 reference
target or test system: T1, human IL-25 (human, UniProt Q9H293 33-177)
T1 construct: also called IL-17E; rhIL-25
T1 sequence: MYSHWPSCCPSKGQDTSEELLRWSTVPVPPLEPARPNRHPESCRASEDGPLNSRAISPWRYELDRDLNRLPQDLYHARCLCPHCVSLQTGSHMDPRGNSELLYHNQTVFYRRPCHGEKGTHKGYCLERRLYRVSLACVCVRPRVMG
experimental protocol: Receptor inhibition (column sub-head 'Panel A/ B'): bead-based ECLIA, inhibition of IL-25 binding to the IL-25 receptor
measurement kind: IC50

{"binder": "I25M30 (antibody, V domains shown, One of the 9 candidate IgG1 mAbs of the combinatorial library based on huDDG91) VH: EVQLVESGAEVKKPGASVKVSCKASGYSFSGYTMNWVRQAPGQRLEWMGLINPYNGGTSYNQNFKGRVTLTVDTSASTAYLELNSLRSEDTGVYYCAREDFDSWTYFAMDYWGQGTLVTVS VL: DIQMTQSPSSLSASVGDRVTITCSASQGIHWNLNWYQQKPGKVPKLLIYYTSSLHSGVPSRFSGSGSGTDFTLTISSLQPEDVATYYCQQFNSFPYTFGQGTKLEIK", "result": "0.02 nM"}
{"binder": "I25M20 (antibody, V domains shown, One of the 9 candidate IgG1 mAbs of the combinatorial library based on huDDG91) VH: EVQLVESGAEVKKPGASVKVSCKASGYSFSGYTMNWVRQAPGQRLEWMGLINPYNGGTSYNQNFKGRVTLTVDTSASTAYLELNSLRSEDTGVYYCAREDYDSWTFFAMDYWGQGTLVTVS VL: DIQMTQSPSSLSASVGDRVTITCSASQGISNYLNWYQQKPGKVPKLLIYYTSSLHSGVPSRFSGSGSGTDFTLTISSLQPEDVATYYCQQYLAFPYTFGQGTKLEIK", "result": "0.013 nM"}
{"binder": "I25M10 (antibody, V domains shown, One of the 9 candidate IgG1 mAbs of the combinatorial library based on huDDG91) VH: EVQLVESGAEVKKPGASVKVSCKASGYSFSGYTMNWVRQAPGQRLEWMGLINPYNGGTSYNQNFKGRVTLTVDTSASTAYLELNSLRSEDTGVYYCAREDFDSWTFFAMDYWGQGTLVTVS VL: DIQMTQSPSSLSASVGDRVTITCSASQGISNYLNWYQQKPGKVPKLLIYYTSSLHSGVPSRFSGSGSGTDFTLTISSLQPEDVATYYCQQYLAFPYTFGQGTKLEIK", "result": "0.014 nM"}
{"binder": "I25M28 (antibody, V domains shown, One of the 9 candidate IgG1 mAbs of the combinatorial library based on huDDG91) VH: EVQLVESGAEVKKPGASVKVSCKASGYSFSGYTMNWVRQAPGQRLEWMGLINPYNGGTSYNQNFKGRVTLTVDTSASTAYLELNSLRSEDTGVYYCAREDFDSWTYFAMDYWGQGTLVTVS VL: DIQMTQSPSSLSASVGDRVTITCSASQGISNYLNWYQQKPGKVPKLLIYYTSSLHSGVPSRFSGSGSGTDFTLTISSLQPEDVATYYCQQYLAFPYTFGQGTKLEIK", "result": "0.014 nM"}
{"binder": "I25M31 (antibody, V domains shown, One of the 9 candidate IgG1 mAbs of the combinatorial library based on huDDG91) VH: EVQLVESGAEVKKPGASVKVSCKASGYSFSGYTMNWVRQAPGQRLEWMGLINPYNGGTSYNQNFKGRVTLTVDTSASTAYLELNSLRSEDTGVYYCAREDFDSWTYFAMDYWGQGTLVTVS VL: DIQMTQSPSSLSASVGDRVTITCSASQGISNYLNWYQQKPGKVPKLLIYYTSSLHSGVPSRFSGSGSGTDFTLTISSLQPEDVATYYCQQYSKLPYTFGQGTKLEIK", "result": "0.018 nM"}
{"binder": "I25M11 (antibody, V domains shown, One of the 9 candidate IgG1 mAbs of the combinatorial library based on huDDG91) VH: EVQLVESGAEVKKPGASVKVSCKASGYSFSGYTMNWVRQAPGQRLEWMGLINPYNGGTSYNQNFKGRVTLTVDTSASTAYLELNSLRSEDTGVYYCAREDFDSWTFFAMDYWGQGTLVTVS VL: DIQMTQSPSSLSASVGDRVTITCSASQGIASFLNWYQQKPGKVPKLLIYYTSSLHSGVPSRFSGSGSGTDFTLTISSLQPEDVATYYCQQYSSFPYTFGQGTKLEIK", "result": "0.014 nM"}
